From: paper PMC5041495

- TARGET SYSTEM: alpha-thrombin (human, UniProt P00734;P00734 328-363;364-622)
- EXPERIMENTAL PROTOCOL: BLI
pKd: −log10 of the molar value.

- BINDER: "GGGAACAAAGCUGAAGUACUUACCC (structured_RNA, 2'-F pyrimidines; PS2 at 3'-phosphate of U17) [AF113-18]"
  pKd: 12.00
